# STUDY SYSTEM: UniProt:P41144
# Sequence (P41144 whole entry): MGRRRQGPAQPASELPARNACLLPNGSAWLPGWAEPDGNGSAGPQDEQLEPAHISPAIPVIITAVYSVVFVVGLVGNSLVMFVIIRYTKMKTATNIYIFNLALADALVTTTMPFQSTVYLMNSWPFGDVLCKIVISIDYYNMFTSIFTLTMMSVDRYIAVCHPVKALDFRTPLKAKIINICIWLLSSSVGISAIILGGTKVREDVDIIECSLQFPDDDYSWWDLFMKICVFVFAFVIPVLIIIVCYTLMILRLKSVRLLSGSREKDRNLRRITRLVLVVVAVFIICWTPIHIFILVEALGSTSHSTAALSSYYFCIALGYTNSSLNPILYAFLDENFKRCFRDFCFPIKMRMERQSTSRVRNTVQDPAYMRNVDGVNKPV
# ASSAY PROCEDURE: Binding affinity for kappa opioid receptor was measured using [3H]U-69593
MEASURED PROPERTY: Ki (nM)

INSERT INTO assay_data (chemical_string, observed) VALUES
  ('Oc1ccc2c3c1O[C@H]1c4ncc(Br)cc4C[C@@]4(O)[C@@H](C2)N(CC2CC2)CC[C@]314', 55.7),
  ('N#Cc1cnc2c(c1)C[C@@]1(O)[C@H]3Cc4ccc(O)c5c4[C@@]1(CCN3CC1CC1)[C@H]2O5', 33.9),
  ('Oc1ccc2c3c1O[C@H]1c4ncc(NCc5ccccc5)cc4C[C@@]4(O)[C@@H](C2)N(CC2CC2)CC[C@]314', 6.7),
  ('Oc1ccc2c3c1O[C@H]1c4ncc(CNc5ccccc5)cc4C[C@@]4(O)[C@@H](C2)N(CC2CC2)CC[C@]314', 19),
  ('Oc1ccc2c3c1O[C@H]1c4ncc(-n5cccc5)cc4C[C@@]4(O)[C@@H](C2)N(CC2CC2)CC[C@]314', 12.2),
  ('O=[N+]([O-])c1cnc2c(c1)C[C@@]1(O)[C@H]3Cc4ccc(O)c5c4[C@@]1(CCN3CC1CC1)[C@H]2O5', 92),
  ('N=C(N)Nc1cnc2c(c1)C[C@@]1(O)[C@H]3Cc4ccc(O)c5c4[C@@]1(CCN3CC1CC1)[C@H]2O5', 0.7);
